# test description: Pharmacokinetics of acteoside and its metabolites in rat plasma after oral acteoside (UPLC-QqQ-MS)
# Assay type: in vivo, male Sprague–Dawley rats
# stated conditions: male, Sprague-Dawley, rat, plasma, po, 100 mg/kg, acteoside in rat plasma, oral acteoside 100 mg/kg, UCP group, n = 6; read-out: Cmax
# Source text: After a week of acclimatization, rats were split into three groups at random: the wine-processed Cistanche polysaccharide group (WCP group), the unprocessed Cistanche polysaccharide group (UCP group), and the blank control group (Control group). Six rats each group were raised in the same cage for breeding. Prior to the experiment, provide water and regular laboratory meals to the rats at will and fast for one night before the experiment. […]
measurement kind: Cmax (ng/mL)
Value expressed in ng/mL; do not type the unit.

In: Please supply the value of reported Cmax for the item C[C@@H]1O[C@@H](O[C@@H]2[C@@H](O)[C@H](OCCc3ccc(O)c(O)c3)O[C@H](CO)[C@H]2OC(=O)/C=C/c2ccc(O)c(O)c2)[C@H](O)[C@H](O)[C@H]1O [Acteoside, acteoside]
Out: 1030
